# method: Cytotoxicity (CC50) on mouse whole spleen lymphocytes, Example 3
# Assay type: cell-based
# conditions-used: BALB/c; mouse whole spleen lymphocytes (Tables 3 and 4)
Structures can show the parent of a compound that is named as a salt.

{"columns": ["compound", "CC50, µM"],
 "data": [
  ["CCN(CCO)CCCC(C)Nc1ccnc2cc(Cl)ccc12 (centres unmarked) [Hydroxychloroquine Sulfate, hydroxychloroquine sulfate]", 26.9],
  ["CC(C)(C)NCc1cc(Nc2ccnc3cc(Cl)ccc23)c2c(c1O)CCCC2.O=P(O)(O)O.O=P(O)(O)O [Naphthoquine Phosphate, Naphthoquine phosphate]", 1.59]
]}

* * *

# Tested on: mouse whole spleen lymphocytes (ConA-induced T cell activation and proliferation)
# method: ConA-induced lymphocyte proliferation assay (3H-thymidine)
# Format: cell-based
# conditions-used: Mus musculus, Lymphocyte, ConA 1 μg/ml, 48 hours, 3H-thymidine; read-out: ConA IC50
pIC50: −log10 of the molar value. Where a name gives a salt, the structure may show the parent alone.
Catalogue of pIC50 values

{"columns": ["compound", "pIC50"],
 "data": [
  ["CCN(CCO)CCCC(C)Nc1ccnc2cc(Cl)ccc12 (centres unmarked) [Hydroxychloroquine Sulfate, hydroxychloroquine sulfate]", 4.77],
  ["CC(C)(C)NCc1cc(Nc2ccnc3cc(Cl)ccc23)c2c(c1O)CCCC2.O=P(O)(O)O.O=P(O)(O)O [Naphthoquine Phosphate, Naphthoquine phosphate]", 6.39]
]}

* * *

# System: IL-1β
# method: IL-1β production by LPS-induced RAW264.7 cells (ELISA)
# Format: cell-based, mouse
# conditions-used: Mus musculus; LPS 10 μg/ml, RAW264.7; read-out: IB-1β IC50
Structures can show the parent of a compound that is named as a salt.

{"columns": ["compound", "IC50 (nM)"],
 "data": [
  ["CC(C)(C)NCc1cc(Nc2ccnc3cc(Cl)ccc23)c2c(c1O)CCCC2.O=P(O)(O)O.O=P(O)(O)O [Naphthoquine Phosphate, Naphthoquine phosphate]", 1590],
  ["CCN(CCO)CCCC(C)Nc1ccnc2cc(Cl)ccc12 (centres unmarked) [Hydroxychloroquine Sulfate, hydroxychloroquine sulfate]", 3500]
]}

* * *

# System: mouse spleen lymphocytes
# method: Non-specific cytotoxicity assay (MTT), mouse spleen lymphocytes
# Type: cell-based
# conditions-used: mouse whole spleen lymphocytes, 48 hours, listed as Hydroxychloroquine Sulfate (Zhongxi Sunve)
Where a name gives a salt, the structure may show the parent alone.

{"columns": ["compound", "measure-unit", "CC50"],
 "data": [
  ["CCN(CCO)CCCC(C)Nc1ccnc2cc(Cl)ccc12 (stereo not shown) [Hydroxychloroquine Sulfate, hydroxychloroquine sulfate]", "µM", 25.2]
]}

* * *

# method: Non-specific cytotoxicity assay (MTT), mouse spleen lymphocytes
# Assay type: cell-based
# conditions-used: BALB/c, mouse, mouse whole spleen lymphocytes
Where a name gives a salt, the structure may show the parent alone.

{"columns": ["compound", "CC50 at 48 h [µM]"],
 "data": [
  ["CCN(CCO)CCCC(C)Nc1ccnc2cc(Cl)ccc12 (stereo not drawn) [Hydroxychloroquine Sulfate, hydroxychloroquine sulfate]", 25.2],
  ["CC(C)(C)NCc1cc(Nc2ccnc3cc(Cl)ccc23)c2c(c1O)CCCC2.O=P(O)(O)O.O=P(O)(O)O [Naphthoquine Phosphate, Naphthoquine phosphate]", 1.45],
  ["CCN(CC)CCCC(C)Nc1ccnc2cc(Cl)ccc12 (stereo not drawn) [Chloroquine Phosphate]", 26.9]
]}

* * *

# Tested on: IL-1β
# method: IL-1β secretion by TLRs-L-stimulated mouse whole spleen lymphocytes (ELISA)
# Type: cell-based
# conditions-used: Lymphocyte, 48 h, stimulant TLR4-L 10 μg/ml, read-out: IB-1β IC50
Where a name gives a salt, the structure may show the parent alone.

{"columns": ["compound", "IC50, µM"],
 "data": [
  ["CCN(CCO)CCCC(C)Nc1ccnc2cc(Cl)ccc12 (centres unmarked) [Hydroxychloroquine Sulfate, hydroxychloroquine sulfate]", 32],
  ["CC(C)(C)NCc1cc(Nc2ccnc3cc(Cl)ccc23)c2c(c1O)CCCC2.O=P(O)(O)O.O=P(O)(O)O [Naphthoquine Phosphate, Naphthoquine phosphate]", 3.35]
]}

* * *

Catalogue of IC50 values
# Test system: mouse whole spleen lymphocytes
# method: TLRs-L-stimulated proliferation of mouse whole spleen lymphocytes (3H-TdR)
# Type: cell-based
# conditions-used: Mus musculus, Lymphocyte, 48 h, stimulant TLR7-L 5 μg/ml
Structures can show the parent of a compound that is named as a salt.

{"columns": ["compound", "IC50"],
 "data": [
  ["CCN(CCO)CCCC(C)Nc1ccnc2cc(Cl)ccc12 (centres unmarked) [Hydroxychloroquine Sulfate, hydroxychloroquine sulfate]", "18.9 µM"],
  ["CC(C)(C)NCc1cc(Nc2ccnc3cc(Cl)ccc23)c2c(c1O)CCCC2.O=P(O)(O)O.O=P(O)(O)O [Naphthoquine Phosphate, Naphthoquine phosphate]", "1.05 µM"]
]}

* * *

Catalogue of CC50 at 48 h values
# method: Non-specific cytotoxicity assay (MTT), RAW264.7
# Format: cell-based, mouse
# conditions-used: mouse, RAW264.7 cells
Structures can show the parent of a compound that is named as a salt.

{"columns": ["compound", "CC50 at 48 h / µM"],
 "data": [
  ["CC(C)(C)NCc1cc(Nc2ccnc3cc(Cl)ccc23)c2c(c1O)CCCC2.O=P(O)(O)O.O=P(O)(O)O [Naphthoquine Phosphate, Naphthoquine phosphate]", 8.73],
  ["CCN(CCO)CCCC(C)Nc1ccnc2cc(Cl)ccc12 (centres unmarked) [Hydroxychloroquine Sulfate, hydroxychloroquine sulfate]", 24.4]
]}

* * *

# Test system: IgM
# method: IgM secretion by TLRs-L-stimulated purified mouse B cells (ELISA)
# Type: cell-based
# conditions-used: B-cell, 120 h, stimulant TLR4-L 10 μg/ml
Structures can show the parent of a compound that is named as a salt.
Catalogue of IC50 values

{"columns": ["molecule", "limit-qualifier", "IC50 [nM]"],
 "data": [
  ["CCN(CCO)CCCC(C)Nc1ccnc2cc(Cl)ccc12 (centres unmarked) [Hydroxychloroquine Sulfate, hydroxychloroquine sulfate]", ">", 8000],
  ["CC(C)(C)NCc1cc(Nc2ccnc3cc(Cl)ccc23)c2c(c1O)CCCC2.O=P(O)(O)O.O=P(O)(O)O [Naphthoquine Phosphate, Naphthoquine phosphate]", "=", 210]
]}

* * *

Catalogue of IC50 values
# System: IgM
# method: IgM secretion by TLRs-L-stimulated mouse whole spleen lymphocytes (ELISA)
# Format: cell-based
# conditions-used: Lymphocyte, 120 h, stimulant TLR9-L 1 μM
Counter-ions that a name gives are not always drawn.
measure: IC50

{"columns": ["molecule", "measure", "experimental-value"],
 "data": [
  ["CCN(CCO)CCCC(C)Nc1ccnc2cc(Cl)ccc12 (centres unmarked) [Hydroxychloroquine Sulfate, hydroxychloroquine sulfate]", "IC50", "2.51 µM"],
  ["CC(C)(C)NCc1cc(Nc2ccnc3cc(Cl)ccc23)c2c(c1O)CCCC2.O=P(O)(O)O.O=P(O)(O)O [Naphthoquine Phosphate, Naphthoquine phosphate]", "IC50", "2.03 µM"]
]}

* * *

Catalogue of CC50 at 48 h values
# method: Non-specific cytotoxicity assay (MTT), purified mouse B cells
# Format: cell-based
# conditions-used: BALB/c
Counter-ions that a name gives are not always drawn.
measure: CC50 at 48 h (µM)

{"columns": ["compound", "experimental-value"],
 "data": [
  ["CCN(CCO)CCCC(C)Nc1ccnc2cc(Cl)ccc12 (centres unmarked) [Hydroxychloroquine Sulfate, hydroxychloroquine sulfate]", 19.7],
  ["CC(C)(C)NCc1cc(Nc2ccnc3cc(Cl)ccc23)c2c(c1O)CCCC2.O=P(O)(O)O.O=P(O)(O)O [Naphthoquine Phosphate, Naphthoquine phosphate]", 1.98]
]}

Where these numbers come from: patent US20250332154A1
